measured-on: Recombinant M. tuberculosis MbtI (Mycobacterium tuberculosis, UniProt P9WFX1)
Sequence (P9WFX1 whole entry): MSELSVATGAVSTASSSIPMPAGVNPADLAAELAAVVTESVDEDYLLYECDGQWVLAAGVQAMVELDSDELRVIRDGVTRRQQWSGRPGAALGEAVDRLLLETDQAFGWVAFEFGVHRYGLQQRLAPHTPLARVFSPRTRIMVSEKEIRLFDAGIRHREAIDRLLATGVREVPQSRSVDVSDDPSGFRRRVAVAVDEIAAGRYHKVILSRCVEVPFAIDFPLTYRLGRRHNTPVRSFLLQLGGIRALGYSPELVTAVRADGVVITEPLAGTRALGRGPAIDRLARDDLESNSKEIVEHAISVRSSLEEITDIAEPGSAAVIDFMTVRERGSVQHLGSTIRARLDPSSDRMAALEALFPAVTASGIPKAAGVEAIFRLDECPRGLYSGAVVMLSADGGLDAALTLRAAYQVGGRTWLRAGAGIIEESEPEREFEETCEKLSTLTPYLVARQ
test-summary: biochemical
test-context: read-out: MbtI IC50
test-readout: IC50 (µM)
State the answer as a number, implicitly in µM.

Query: Reported IC50, compound N#Cc1cc([N+](=O)[O-])ccc1-c1ccc(C(=O)O)o1 : ____
Reply: 24.4

----------
Each item that follows carries a reported IC50.
measured-on: Recombinant M. tuberculosis MbtI (Mycobacterium tuberculosis)
test-summary: biochemical
Record the result as a number with its unit.

Examples from the recorded data:
smiles-notation: O=C(O)c1ccc(-c2ccc(C(F)(F)F)cc2O)o1
IC50: 35.9 µM

smiles-notation: Cc1cc(C(F)(F)F)ccc1-c1ccc(C(=O)O)o1
IC50: 31.5 µM

smiles-notation: Cc1cc([N+](=O)[O-])ccc1-c1ccc(C(=O)O)o1
IC50: 28.5 µM

smiles-notation: Nc1cc(C(F)(F)F)ccc1-c1ccc(C(=O)O)o1
IC50: 34.6 µM

Query: Reported IC50, molecule Nc1cc([N+](=O)[O-])ccc1-c1ccc(C(=O)O)o1 : ____
Reply: 24.2 µM

Query: Reported IC50, molecule O=C(O)c1ccc(-c2ccc(C(F)(F)F)cc2F)o1 : ____
Reply: 27.6 µM

Query: Reported IC50, molecule N#Cc1cc(C(F)(F)F)ccc1-c1ccc(C(=O)O)o1 : ____
Reply: 18.5 µM

Query: Reported IC50, molecule O=C(O)c1ccc(-c2ccc([N+](=O)[O-])cc2O)o1 : ____
Reply: 29.8 µM

The origin of these recorded values is paper PMC6427685.
